test system: TK-10 renal; test: NCI-60 one-dose screen, 48 h (100 = growth as untreated, 0 = no growth, -100 = all killed); details: 10 µM unless noted
This is part of a sample that, as a whole, favours compounds with a hit. Of some 83,000 tested, about 20% had one in any assay.
Measured growth values are reported for all entries that follow.
Form entry: value (%) — number only.

Field: example entries. Status: answers known.
Asked: State the recorded growth for this entry: O=C1C(c2c[nH]c3ccccc23)=C(c2coc3cc(Br)ccc23)C(=O)N1O
Given back: 137

Asked: State the recorded growth for this entry: NS(=O)(=O)c1ccc(C(=O)N=Nc2c(O)[nH]c3c(F)cccc23)cc1
Given back: 107

Asked: State the recorded growth for this entry: Cc1ccc(Cl)cc1N1CCN(C(=O)[C@@H]2C[C@@H]2c2ccc(F)cc2)CC1
Given back: 100

Others:
Asked: State the recorded growth for this entry: Cc1ccc(-c2nc3nc(-c4ccc(Cl)cc4)nc(N4CCCNCC4)c3o2)cc1
Given back: 29.7

Asked: State the recorded growth for this entry: Clc1ccc2c(c1)N(c1ncnc3ccc(-c4cnc5[nH]ccc5c4)cc13)CC2
Given back: 26.2

Asked: State the recorded growth for this entry: CC/C=C\C/C=C\C[C@H](O)C/C=C1/C(=O)C=C[C@@H]1C/C=C\CCCC(=O)OC
Given back: 5.09

Asked: State the recorded growth for this entry: NC(=O)c1c(NC(=O)/C=C/c2cccs2)sc2c1CCC(=O)C2
Given back: 43.9

Asked: State the recorded growth for this entry: CN1CCN(c2ccc(/C=C/C(=O)c3ccc(O)cc3)cc2)CC1
Given back: 122

Asked: State the recorded growth for this entry: CC12OC(CC(O)C1O)n1c3ccccc3c3c4c(c5c6ccccc6n2c5c31)C(=O)N(CCN1CCOCC1)C4=O (centres undefined)
Given back: -11.1
